These measurements were taken from paper PMC9911399.

Some binders, each annotated with its measured binding signal.
Molecular target: T1, RBFOX1 RRM RbFoxmut (Fox-RRM*) (Homo sapiens, UniProt Q9NWB1 109-208, R118D;E147R;N151S;E152T)
T1 sequence: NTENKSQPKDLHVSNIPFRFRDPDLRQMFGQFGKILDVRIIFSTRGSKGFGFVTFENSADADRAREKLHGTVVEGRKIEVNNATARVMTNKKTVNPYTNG
Assay: EMSA; HiTS-Eq, 1 nM pool, 10 min; buffer printed only for the single-RNA assays: 10 mM Tris pH 7.5, 150 mM NaCl, 3.4 mM EDTA, 0.001% NP-40, 30 C
Settings: tags: His6 N-terminal (pET28a); label: 5' 32P
In all, about 16,000 sequences were measured (“ka relative to ugcaugu”: median about 0.096, highest 2% from about 0.35 on). The full list was thinned out, with the highest values kept by preference.

GCAUCUG (DNA:RNA) RNA: GGGAGACCGGAAUUCAGAUUGUCCGCAUCUGUUAAAUCCCGUCGUAGCCACCA DNA 1: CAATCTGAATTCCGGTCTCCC DNA 2: TGGTGGCTACGACGGGATT	0.264 KA relative to UGCAUGU

For reference, reported binding signal for GCAUCAG (DNA:RNA) RNA: GGGAGACCGGAAUUCAGAUUGUCCGCAUCAGUUAAAUCCCGUCGUAGCCACCA DNA 1: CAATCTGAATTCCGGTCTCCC DNA 2: TGGTGGCTACGACGGGATT stands at 0.382 KA relative to UGCAUGU
